FYI, the data here is from patent US20220290149.

In this section we review reported pKd values for a set of binders.
Test target: D-dimer (TGpr1; fibrin clot degradation product DD) (UniProt P02671;P02675;P02679-2 P02671:124-225,P02675:164-491,P02679-2:89-437)
Measurement protocol: ELONA; considered non-specific
Measurement setup: chain copies: 2; label: 5' biotin
pKd: −log10 of the molar value.
Measured metric: pKd

| Binder | Reported value |
| --- | --- |
| AP3 (ssDNA) DNA: ACAAAGCGACACACAGGAGCCCGGTCGGCGGGTGGGCGGGTGGAGAACGAGGTAGGGGTCAGGACAGGACCACACCCAGCG | < 6.00 |
| AP1 (ssDNA) DNA: ACAAAGCGACACACAGGAGCCCGGTCGGCGGGGGGGCGGGTGGAGAACGAGGTAGGGGTCAGGACAGGACCACACCCAGCG | < 6.00 |
| EM1 (ssDNA) DNA: ACAAAGCGACACACAGGAGCCCAATGATGCTGTTATGGCGCTTTGTGGACAGGACCACACCCAGCG | < 6.00 |
